# Tested on: HL-60(TB) leukemia
# method_description: NCI tumour cell line growth inhibition, 48 h; in the data active means GI50 below about 0.43 µM; inactive means the rest
Possible outcomes: active, inactive

- molecule: "COc1cc(C2C(C(=O)OCc3ccccc3)=C(C)Nc3nc4ccccc4n32)cc(OC)c1OC (centres undefined)"
  assigned_label: "inactive"
- molecule: "Cn1cc(-c2nc(N)nnc2-c2c[nH]c3ccc(F)cc23)c2cc(Br)cnc21"
  assigned_label: "active"
- molecule: "COCOc1cc2c(=O)c(C)c(C(=O)N[C@@H](Cc3ccccc3)C(O)C(=O)NCc3ccccc3)oc2cc1OC (some centres undefined)"
  assigned_label: "inactive"
- molecule: "O=C(Nc1ccc(OCc2ccc(Cl)cc2)cc1)Nc1ccc(Cl)c(C(F)(F)F)c1"
  assigned_label: "inactive"
